Target: T1, human CLDN18.2 (human)
T1 construct: also called hCLDN18.2; Claudin-18 splice variant 2
Experiment: FACS, HEK293-CLDN18.2 cells
quantity: EC50 (mg/L)
Your answer is read as mg/L, so omit the unit and give the number.

Give the measured EC50 of 7C12-C (antibody, human IgG1, V domains shown, also called chimeric 7C12) VH: EFQLQQSGPELEKPGASVRISCKTSGYSFTGYNMNWVKQSNGESLEWIGNIDPYYGATRYNQKFKGKATLTVDKSSSTAYMQLKSLTSEDSAVYYCARSYYGNAFDYWGQGTTLTVSS VL: DIVMTQSPSSLTVTAGEKVTMSCKSSQSLLNSGNQKNYLTWYQQKPGQPPKLLIYWASTRESGVPDRFTGSGSGTDFTLTISSVQAEDLAVYYCQNDYSFPFTFGSGTKLEIK .
0.63

Give the measured EC50 of 11F12-C (antibody, human IgG1, V domains shown, also called chimeric 11F12) VH: EFQLQQSGPELEKPGASVRISCKTSGYSFTGYNMNWVKQSNGESLEWIGYIDPYYGGTRYNQKFKGKATLTVDKSSSTAYMQLKSLTSEDSAVYYCARSYYGNAFDYWGQGTTLTVSS VL: DIVMTQSPSSLTVTAGEKVTMSCKSSQSLLNSGNQKNYLTWYQQKPGQPPKLLIYWASTRESGVPDRFTGSGSGTDFTLTISSVQAEDLAVYYCQNDYSYPFTFGSGTKLEIK .
0.61

Others:
Give the measured EC50 of 12E9-C (antibody, human IgG1, V domains shown, also called chimeric 12E9) VH: EFQLQQSGPELEKPGASVRISCKTSGYSFTGYNMNWVKQSNGESLEWIGNIDPYYGGTRYNQKFKGKATLTVDKSSSTAYMQLKSLTSEDSAVYYCARSYYGNAFDYWGQGTTLTVSS VL: DIVMTQSPSSLTVTAGEKVTMSCKSSQNLLNNGNQKNYLTWYQQKPGQPPKLLIYWASTRESGVPDRFTGSGSGTDFILTISSVQAEDLAVYYCQNDYSFPFTFGAGTKLELK .
0.65
